system: sodium iodide symporter (NIS), iodide uptake in FRTL5 cells (Rattus norvegicus)
Construct: endogenous in cells; host or cells: FRTL5 (rat thyroid-derived cells)
methodDescription: Inhibition of iodide uptake in FRTL5 cells, non radioactive arsenic/cerium assay
Assay type: cell-based
particulars: assay control; read-out: IC50, iodide entrapment in FRTL5 cells, assay control
Procedure: Some of the synthesized compounds were evaluated for their ability to inhibit iodide entrapment in FRTL5 cells. The IC50 values were measured in at least […] independent experiments. The biological activity of each compound was determined in FRTL5 cells, using a non radioactive arsenic/cerium assay as described in F. Waltz et al., Anal. Biochem., 2012, 396, 91-95. […] The IC50 values of all compounds were measured least thrice independently. […]
pIC50: −log10 of the molar value.
assayReadout: pIC50

compound	experimentalValue
[O-][Cl+3]([O-])([O-])O [Sodium perchlorate, reference compound]	7.00

###

system: sodium iodide symporter (NIS), iodide uptake in FRTL5 cells (Rattus norvegicus, UniProt Q63008)
Construct: endogenous in cells; host or cells: FRTL5 (rat thyroid-derived cells)
Sequence (Q63008 whole entry): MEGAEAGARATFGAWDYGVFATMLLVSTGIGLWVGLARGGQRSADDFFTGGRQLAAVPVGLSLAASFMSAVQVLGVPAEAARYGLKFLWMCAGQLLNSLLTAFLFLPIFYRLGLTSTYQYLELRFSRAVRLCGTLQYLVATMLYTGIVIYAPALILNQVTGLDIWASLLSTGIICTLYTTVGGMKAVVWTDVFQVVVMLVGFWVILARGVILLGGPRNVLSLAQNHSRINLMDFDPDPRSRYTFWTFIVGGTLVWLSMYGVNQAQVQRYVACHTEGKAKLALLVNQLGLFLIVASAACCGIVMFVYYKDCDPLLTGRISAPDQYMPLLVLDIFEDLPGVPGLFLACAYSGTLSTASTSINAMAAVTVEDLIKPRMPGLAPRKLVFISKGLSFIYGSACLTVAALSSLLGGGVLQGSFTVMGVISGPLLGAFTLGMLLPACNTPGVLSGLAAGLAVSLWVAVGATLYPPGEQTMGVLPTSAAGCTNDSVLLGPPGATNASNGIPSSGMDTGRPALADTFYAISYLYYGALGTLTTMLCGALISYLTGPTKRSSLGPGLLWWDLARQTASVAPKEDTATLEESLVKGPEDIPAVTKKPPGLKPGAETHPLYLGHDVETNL
methodDescription: Inhibition of iodide uptake in FRTL5 cells, non radioactive arsenic/cerium assay
Type: cell-based
particulars: Table 5, variations at Y, R1, R3, R4, R5; averaged from two to four independent experiments; NaI 10 μM, 1 hour, 20°C; read-out: IC50 (μM), inhibitory activity against iodide uptake in FRTL5 cells
log10 IC50 listing for selected compounds.
assayReadout: log10 IC50 (log10 of the value in nM)

compound	log10 IC50
COc1cccc(COC(=O)C2=C(C)N(C)C(=O)NC2c2ccco2)c1 (stereo not shown)	1.88
CC1=C(C(=O)NCc2ccc3c(c2)OCO3)C(c2ccccc2)NC(=O)N1 (stereo not shown)	1.89
COc1ccc(COC(=O)C2=C(C)N(C)C(=O)N(C)C2c2ccco2)cc1 (stereo not shown)	0.20
CC1=C(C(=O)OCc2ccc3c(c2)OCO3)C(c2ccoc2)NC(=O)N1 (stereo not shown)	1.57
COc1ccc(COC(=O)C2=C(C)N(C)C(=O)NC2c2ccco2)cc1 (stereo not shown)	1.95
COc1cccc(COC(=O)C2=C(C)N(C)C(=O)N(C)C2c2ccco2)c1 (stereo not shown)	-1.19
CC1=C(C(=O)OCc2ccc3c(c2)OCO3)C(c2ccco2)NC(=O)N1 (stereo not shown)	0.60
